# subject_of_test: Epidermal growth factor receptor (Homo sapiens, UniProt P00533)
# Sequence (P00533 whole entry, the tested form may be a part): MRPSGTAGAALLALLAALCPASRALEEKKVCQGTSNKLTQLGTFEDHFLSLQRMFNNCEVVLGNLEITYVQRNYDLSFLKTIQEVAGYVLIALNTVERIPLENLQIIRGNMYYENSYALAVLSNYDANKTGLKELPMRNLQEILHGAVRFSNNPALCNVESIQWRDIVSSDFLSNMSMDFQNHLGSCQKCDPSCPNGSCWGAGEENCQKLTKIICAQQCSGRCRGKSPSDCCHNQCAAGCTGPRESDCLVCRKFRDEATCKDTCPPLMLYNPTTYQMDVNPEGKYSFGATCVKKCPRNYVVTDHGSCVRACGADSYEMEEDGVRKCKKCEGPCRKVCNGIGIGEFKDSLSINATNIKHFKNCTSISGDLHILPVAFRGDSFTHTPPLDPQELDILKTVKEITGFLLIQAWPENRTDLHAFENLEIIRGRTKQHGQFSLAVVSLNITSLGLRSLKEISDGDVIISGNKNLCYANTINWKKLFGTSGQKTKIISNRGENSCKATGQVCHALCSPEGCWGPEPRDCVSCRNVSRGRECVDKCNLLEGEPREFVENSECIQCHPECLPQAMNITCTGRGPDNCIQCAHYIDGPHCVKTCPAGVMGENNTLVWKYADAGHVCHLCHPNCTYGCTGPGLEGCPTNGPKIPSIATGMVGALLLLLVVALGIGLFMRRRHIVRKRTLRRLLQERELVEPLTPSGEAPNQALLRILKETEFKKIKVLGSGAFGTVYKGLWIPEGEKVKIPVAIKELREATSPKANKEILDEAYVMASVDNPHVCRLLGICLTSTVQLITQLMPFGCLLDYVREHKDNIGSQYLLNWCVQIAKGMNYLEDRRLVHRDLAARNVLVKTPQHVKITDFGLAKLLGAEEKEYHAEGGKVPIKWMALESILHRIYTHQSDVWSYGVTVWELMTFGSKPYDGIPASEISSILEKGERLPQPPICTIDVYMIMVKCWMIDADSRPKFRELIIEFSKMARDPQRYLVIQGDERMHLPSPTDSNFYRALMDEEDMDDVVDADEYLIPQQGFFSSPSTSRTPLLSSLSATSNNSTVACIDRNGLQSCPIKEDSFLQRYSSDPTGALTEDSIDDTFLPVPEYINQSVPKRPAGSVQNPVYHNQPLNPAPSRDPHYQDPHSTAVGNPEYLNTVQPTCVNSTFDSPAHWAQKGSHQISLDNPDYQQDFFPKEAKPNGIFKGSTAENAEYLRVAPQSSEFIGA
# assay_procedure: Inhibition of N-terminal GST-tagged human EGFR cytoplasmic domain (669-1210 AA) expressed in baculovirus at 10 uM using FAM-labelled peptide as substrate pre-incubated for 10 mins followed by substrate addition by mobility shift assay relative to control
Threshold check on inhibition: at or above 60% gives yes, strictly below gives no.

The following molecules have reported results that may help.
Can COc1cc(Nc2cc(NC(=O)Nc3c(Cl)cccc3Cl)ncn2)cc(C(F)(F)F)c1 be said to have inhibition at or above 60%?
no

Does the molecule Cc1ccc(Nc2cc(NC(=O)Nc3c(Cl)cccc3Cl)ncn2)cc1C have recorded inhibition that is 60% or more?
yes

Say whether Cc1ccc(Nc2cc(NC(=O)Nc3c(Cl)cccc3Cl)ncn2)cc1F shows inhibition of 60% or more.
yes

***
Reported inhibition reaches at least 60% for COc1cc(Br)ccc1Nc1cc(NC(=O)Nc2c(Cl)cccc2Cl)ncn1 ?
yes

Record COc1cc(NC(=O)Nc2cc(Nc3ccc(OC)c(I)c3)ncn2)cc(OC)c1 ; criterion: inhibition no lower than 60%. Met?
no

Given the entry CCc1ccc(Nc2cc(NC(=O)Nc3cc(OC)cc(OC)c3)ncn2)cc1 , answer whether its inhibition meets or surpasses 60%.
no

Decide: inhibition of COc1cc(NC(=O)Nc2cc(Nc3ccc(C)c(F)c3)ncn2)cc(OC)c1 >= 60%?
no

hey, is inhibition for this one >= 60%? CCc1cccc(Nc2cc(NC(=O)Nc3cc(OC)cc(OC)c3)ncn2)c1
no

Does the molecule COc1cc(NC(=O)Nc2cc(Nc3ccc(Br)cc3OC)ncn2)cc(OC)c1 have recorded inhibition that is 60% or more?
no

Test whether the molecule COc1ccc(Nc2cc(NC(=O)Nc3c(Cl)cccc3Cl)ncn2)cc1C records inhibition of 60% or higher.
no

Hi, just wondering whether COc1cc(NC(=O)Nc2cc(Nc3ccc(C)c(C)c3)ncn2)cc(OC)c1 shows inhibition of 60% or higher.
no

Kindly determine if inhibition recorded for COc1ccc(OC)c(Nc2cc(NC(=O)Nc3c(Cl)cccc3Cl)ncn2)c1 is above or exactly 60%.
yes

Quick check: does COc1ccc(F)cc1Nc1cc(NC(=O)Nc2c(Cl)cccc2Cl)ncn1 have inhibition greater than or equal to 60%?
no

Quick check: does COc1cc(NC(=O)Nc2cc(Nc3cc(OC)cc(OC)c3)ncn2)cc(OC)c1 have inhibition greater than or equal to 60%?
yes

Please check the record COc1cc(NC(=O)Nc2cc(Nc3ccc(C(C)(C)C)cc3)ncn2)cc(OC)c1 and state if its inhibition is at or above 60%.
no
